Data provenance is patent US20100267697A1.

# systemTested: human Cav2.2 (composed of the subunits α1, β3 and α2δ) (Homo sapiens)
# Sequence (Q00975 whole entry): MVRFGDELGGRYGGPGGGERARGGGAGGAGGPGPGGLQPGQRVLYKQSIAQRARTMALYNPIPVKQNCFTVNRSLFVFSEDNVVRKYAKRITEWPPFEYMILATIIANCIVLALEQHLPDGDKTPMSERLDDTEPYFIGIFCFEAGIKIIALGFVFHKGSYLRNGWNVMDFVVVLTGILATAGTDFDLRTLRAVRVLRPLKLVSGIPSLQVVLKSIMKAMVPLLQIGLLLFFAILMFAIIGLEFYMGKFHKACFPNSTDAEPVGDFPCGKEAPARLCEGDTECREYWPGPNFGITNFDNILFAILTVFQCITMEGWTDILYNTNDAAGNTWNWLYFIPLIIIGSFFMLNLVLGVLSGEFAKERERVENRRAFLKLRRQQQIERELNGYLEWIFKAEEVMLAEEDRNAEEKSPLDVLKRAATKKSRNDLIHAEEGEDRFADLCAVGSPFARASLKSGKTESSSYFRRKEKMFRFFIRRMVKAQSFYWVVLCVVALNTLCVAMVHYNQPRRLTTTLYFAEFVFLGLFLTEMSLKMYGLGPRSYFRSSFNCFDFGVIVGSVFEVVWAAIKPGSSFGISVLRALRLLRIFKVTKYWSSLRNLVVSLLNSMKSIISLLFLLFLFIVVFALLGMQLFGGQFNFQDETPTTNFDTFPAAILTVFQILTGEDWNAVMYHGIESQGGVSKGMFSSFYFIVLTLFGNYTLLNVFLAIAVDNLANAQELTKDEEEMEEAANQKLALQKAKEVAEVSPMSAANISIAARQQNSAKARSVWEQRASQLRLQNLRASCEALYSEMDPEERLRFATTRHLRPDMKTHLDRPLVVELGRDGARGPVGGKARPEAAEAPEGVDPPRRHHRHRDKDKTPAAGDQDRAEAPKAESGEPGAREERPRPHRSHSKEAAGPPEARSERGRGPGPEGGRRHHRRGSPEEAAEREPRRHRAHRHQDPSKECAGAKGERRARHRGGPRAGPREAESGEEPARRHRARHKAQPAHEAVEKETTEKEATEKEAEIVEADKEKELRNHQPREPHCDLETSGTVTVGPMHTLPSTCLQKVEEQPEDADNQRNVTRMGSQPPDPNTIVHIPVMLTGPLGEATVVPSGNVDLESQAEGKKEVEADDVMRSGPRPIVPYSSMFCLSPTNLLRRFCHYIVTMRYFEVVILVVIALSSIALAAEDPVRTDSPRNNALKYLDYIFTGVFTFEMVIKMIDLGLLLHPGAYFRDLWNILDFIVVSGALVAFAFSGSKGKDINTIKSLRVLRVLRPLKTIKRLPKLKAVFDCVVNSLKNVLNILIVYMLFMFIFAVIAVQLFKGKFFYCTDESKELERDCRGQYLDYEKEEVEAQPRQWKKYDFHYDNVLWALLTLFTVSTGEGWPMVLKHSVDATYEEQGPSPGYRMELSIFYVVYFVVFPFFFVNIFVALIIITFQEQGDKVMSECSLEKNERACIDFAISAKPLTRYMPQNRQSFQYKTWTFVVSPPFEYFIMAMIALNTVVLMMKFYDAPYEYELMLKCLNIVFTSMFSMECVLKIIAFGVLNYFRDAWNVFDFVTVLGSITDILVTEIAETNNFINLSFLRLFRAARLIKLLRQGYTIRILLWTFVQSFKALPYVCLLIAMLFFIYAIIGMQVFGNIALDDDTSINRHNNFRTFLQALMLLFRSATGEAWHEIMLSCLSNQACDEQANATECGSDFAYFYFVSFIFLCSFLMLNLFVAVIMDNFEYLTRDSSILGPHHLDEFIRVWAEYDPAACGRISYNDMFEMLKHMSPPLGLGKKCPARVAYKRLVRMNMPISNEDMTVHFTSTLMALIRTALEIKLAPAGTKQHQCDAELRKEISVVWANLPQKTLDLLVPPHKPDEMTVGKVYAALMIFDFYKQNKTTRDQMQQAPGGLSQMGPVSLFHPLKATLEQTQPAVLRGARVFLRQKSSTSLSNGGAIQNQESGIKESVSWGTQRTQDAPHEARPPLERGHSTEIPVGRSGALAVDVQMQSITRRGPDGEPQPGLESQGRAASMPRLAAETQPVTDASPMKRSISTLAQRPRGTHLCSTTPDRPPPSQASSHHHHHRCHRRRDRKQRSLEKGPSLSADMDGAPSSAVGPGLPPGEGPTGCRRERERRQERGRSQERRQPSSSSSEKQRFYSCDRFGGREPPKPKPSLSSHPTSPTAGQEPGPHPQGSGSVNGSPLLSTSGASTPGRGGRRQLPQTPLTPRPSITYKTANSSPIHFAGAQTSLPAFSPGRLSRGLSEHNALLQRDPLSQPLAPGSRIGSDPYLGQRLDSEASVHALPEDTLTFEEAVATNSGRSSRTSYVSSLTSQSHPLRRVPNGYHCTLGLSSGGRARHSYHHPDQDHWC
# Sequence (P54284 whole entry partner): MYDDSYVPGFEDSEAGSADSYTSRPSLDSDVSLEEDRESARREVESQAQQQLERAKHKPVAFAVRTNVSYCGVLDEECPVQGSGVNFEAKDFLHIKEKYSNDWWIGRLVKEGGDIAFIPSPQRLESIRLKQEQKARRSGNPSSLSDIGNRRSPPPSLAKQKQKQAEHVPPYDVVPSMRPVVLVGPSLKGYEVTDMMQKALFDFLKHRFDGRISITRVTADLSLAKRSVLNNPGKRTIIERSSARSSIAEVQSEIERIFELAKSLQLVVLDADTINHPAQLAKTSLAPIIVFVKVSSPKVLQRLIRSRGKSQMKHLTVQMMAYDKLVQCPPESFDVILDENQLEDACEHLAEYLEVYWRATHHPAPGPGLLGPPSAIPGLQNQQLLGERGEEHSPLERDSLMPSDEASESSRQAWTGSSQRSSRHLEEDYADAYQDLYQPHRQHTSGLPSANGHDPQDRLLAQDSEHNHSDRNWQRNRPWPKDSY
# Sequence (P54289 25-946 partner limits assumed): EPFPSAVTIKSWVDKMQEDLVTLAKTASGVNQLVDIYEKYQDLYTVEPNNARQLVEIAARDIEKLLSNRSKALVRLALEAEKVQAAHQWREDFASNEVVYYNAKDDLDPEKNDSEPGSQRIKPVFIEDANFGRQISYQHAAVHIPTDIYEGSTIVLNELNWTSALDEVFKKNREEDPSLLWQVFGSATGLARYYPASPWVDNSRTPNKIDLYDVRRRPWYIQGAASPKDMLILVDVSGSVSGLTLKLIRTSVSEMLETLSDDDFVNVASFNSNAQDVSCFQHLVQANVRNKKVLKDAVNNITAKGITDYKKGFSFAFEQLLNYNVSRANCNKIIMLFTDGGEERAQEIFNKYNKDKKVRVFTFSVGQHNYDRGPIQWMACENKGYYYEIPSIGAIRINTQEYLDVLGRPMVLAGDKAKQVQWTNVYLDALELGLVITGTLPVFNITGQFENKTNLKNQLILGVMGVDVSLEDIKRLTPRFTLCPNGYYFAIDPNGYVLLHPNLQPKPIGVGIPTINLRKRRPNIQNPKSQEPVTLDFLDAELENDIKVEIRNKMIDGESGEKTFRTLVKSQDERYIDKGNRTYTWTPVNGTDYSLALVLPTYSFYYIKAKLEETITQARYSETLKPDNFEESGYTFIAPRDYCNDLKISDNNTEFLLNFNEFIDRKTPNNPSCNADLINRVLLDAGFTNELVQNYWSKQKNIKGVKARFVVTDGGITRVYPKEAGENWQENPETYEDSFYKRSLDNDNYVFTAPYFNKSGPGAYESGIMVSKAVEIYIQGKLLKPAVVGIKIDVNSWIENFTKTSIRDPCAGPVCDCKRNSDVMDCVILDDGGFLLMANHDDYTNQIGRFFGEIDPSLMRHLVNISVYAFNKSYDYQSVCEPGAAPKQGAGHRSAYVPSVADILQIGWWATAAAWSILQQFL
# Sequence (P54289 947-1103 partner limits assumed): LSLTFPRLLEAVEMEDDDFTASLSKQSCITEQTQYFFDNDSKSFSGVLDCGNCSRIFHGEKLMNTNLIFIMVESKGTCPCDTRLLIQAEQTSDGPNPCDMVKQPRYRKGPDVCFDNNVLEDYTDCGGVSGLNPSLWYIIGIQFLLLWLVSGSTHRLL
# assayComment: FLIPR assay (TSA201 cells stably transfected with human Cav2.2 and human Kir2.3, FLUO-4 Ca2+ signal, KCl depolarization)
# measurementConditions: 70 mM KCl depolarization, average value
pIC50: −log10 of the molar value.

# molecule, pIC50
data = [
    ("CN1CCN(c2ccc(CN(C(=O)[C@@H]3CCN(C(=O)OC(C)(C)C)C3)c3ccc(F)cc3)cn2)CC1 [Compound 257]", 4.64),
    ("CC(=O)N(Cc1ccc(N2CCC(CO)CC2)nc1)c1ccc(F)cc1 [Compound 233]", 4.65),
    ("CCN(c1nc(CN(C(=O)C(C)(C)C)c2ccccc2OC)cs1)C1CC1 [Compound 174]", 5.42),
    ("CCN(c1nc(CN(C(C)=O)C2CCCCC2)cs1)C1CC1 [Compound 197]", 5.24),
]
